# Run Description: chemical genetic growth profiling, strain panel (AID 1159580);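 note: tested at 20 µM; growth read once vehicle control cultures reached saturation at 30 °C; 1 = growth at the plate median or of vehicle wells; lower values mean less growth of the strain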
# Measurement Context: S. cerevisiae deletion strains, growth OD, locus YLR342W, strain FKS1 (second series), hits give low values
Hit rate of the full screen: of about 5,500 compounds, about 2,000 (36%) were called active. Inconclusive results (about 18%) are left out. Some of the results follow.
Assay Readout: normalized growth
# output: bare number, no unit

Please review the following examples before continuing.
| Molecule | Observed Result |
| --- | --- |
| CC(C)=CCCC1(C)C=Cc2c(O)c3c(c(CC=C(C)C)c2O1)OC12C(=CC4CC1C(C)(C)OC2(C/C=C(\C)C(N)=O)C4=O)C3=O (stereo not drawn) | 0.913 |
| N#CC(O[C@@H]1O[C@H](CO[C@@H]2O[C@H](CO)[C@@H](O)[C@H](O)[C@H]2O)[C@@H](O)[C@H](O)[C@H]1O)c1ccccc1 (stereo partly drawn) | 1.03 |

Please find the next molecule below.
Just so you know, measured normalized growth for C[C@@H]1OC(O[C@H]2C(O[C@H]3CC[C@@]4(C)C(CC[C@]5(C)C4CC=C4C6CC(C)(C)CC[C@]6(C(=O)O)CC[C@]45C)[C@]3(C)CO)OC[C@H](O)[C@@H]2O)[C@H](O)[C@H](O)[C@H]1O (stereo partly drawn) came out at 0.286

----------
# Run Description: chemical genetic growth profiling, strain panel (AID 1159580);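 note: tested at 20 µM; growth read once vehicle control cultures reached saturation at 30 °C; 1 = growth at the plate median or of vehicle wells; lower values mean less growth of the strain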
# Measurement Context: S. cerevisiae deletion strains, growth OD, locus YDL101C, strain DUN1, hits give low values
The whole screen tested about 5,500 compounds, of which about 2,000 (36%) were called active. About 18% were inconclusive and are not listed. This is one part of the list.
Assay Readout: normalized growth
Kindly provide the number alone.

Worked cases, normalized growth given:
| Molecule | normalized growth |
| --- | --- |
| N#CC(NCc1ccccc1)c1ccc(Cl)c(Cl)c1 (centres undefined) | 0.974 |
| O=C(COc1ccc2c(c1)OCO2)N1CCN(c2ncc(C(F)(F)F)cc2Cl)CC1 | 1.03 |
| Cc1ccc(S(=O)(=O)n2c(Sc3ccc([N+](=O)[O-])cc3[N+](=O)[O-])nc3cc(C)ccc32)cc1 | 0.989 |
| O=S(=O)(NC(=S)Nc1ccc(Cl)c(Cl)c1)c1ccccc1 | 1.01 |
| Cn1c(CSCC(=O)Nc2ccccc2)n[nH]c1=S | 1.02 |
| C#C[C@]1(O)CCC2C3CCC4=C(CCC(=O)C4)C3CC[C@@]21C (some centres undefined) | 1 |
| O=C(CSCc1c(F)cccc1Cl)Nc1ccc(F)c(Cl)c1 | 0.956 |
| O=C1C(O)=C(O)C(=O)C(O)=C1O | 0.965 |

Attention now shifts to the item below.
Memo: CNCc1ccccc1 , reported normalized growth: 0.982

----------
# Run Description: chemical genetic growth profiling, strain panel (AID 1159580);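 note: tested at 20 µM; growth read once vehicle control cultures reached saturation at 30 °C; 1 = growth at the plate median or of vehicle wells; lower values mean less growth of the strain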
# Measurement Context: S. cerevisiae deletion strains, growth OD, locus YFR019W, strain FAB1, hits give low values
In all, about 5,500 compounds went through this assay and about 2,000 (36%) were called active. Roughly 18% stayed inconclusive and do not appear here. Some of the results follow.
Assay Readout: normalized growth
Format: numeric value only, no unit, no commentary.

Solved entries:
| Compound | Observed Result |
| --- | --- |
| Fc1cccc(Cl)c1CSc1n[nH]c(-c2cc(C(F)(F)F)cc(C(F)(F)F)c2)n1 | 0.913 |
| O=[N+]([O-])c1ccc(S(=O)(=O)c2ccccc2)nc1S(=O)(=O)c1ccccc1 | 0.62 |
| Fc1ccc(NC(=S)N2CCCN(Cc3ccc(Cl)cc3Cl)CC2)cc1 | 0.998 |
| O=C(NCC(c1ccccc1)c1c[nH]c2ccccc12)c1ccc(C(F)(F)F)cc1 (stereo not given) | 0.984 |

Turning to the following compound.
// sample COC(=O)c1cnn(-c2c(Cl)cccc2Cl)c1C=C(C#N)C#N , its normalized growth was 0.966
